experimental-target: Sterol O-acyltransferase 1 / ACAT1 (Homo sapiens)
reported-metric: IC50

1) COc1ccc2[nH]c(-c3ccc(-c4ccc(O[C@H]5CC[C@@H](C(=O)O)CC5)nc4)nc3)nc2n1: 2.48 µM
2) O=C(O)[C@H]1CC[C@H](Oc2ccc(-c3ccc(-c4nc5cc(F)c(F)cc5[nH]4)cn3)cn2)CC1: 8.44 µM
3) CS(=O)(=O)c1ccc2nc(-c3ccc(-c4ccc(O[C@H]5CC[C@@H](C(=O)O)CC5)nc4)nc3)[nH]c2c1: > 10 µM
4) N#Cc1ccc2nc(-c3ccc(-c4ccc(O[C@H]5CC[C@@H](C(=O)O)CC5)nc4)nc3)[nH]c2c1: > 10 µM
5) O=C(O)[C@H]1CC[C@@H](Oc2ccc(-c3ccc(-c4nc5cc(F)c(F)cc5[nH]4)cn3)cn2)CC1: > 10 µM
6) CS(=O)(=O)c1ccc2nc(-c3ccc(-c4ccc(O[C@H]5CC[C@H](C(=O)O)CC5)nc4)nc3)[nH]c2c1: > 10 µM
7) N#Cc1ccc2nc(-c3ccc(-c4ccc(O[C@H]5CC[C@H](C(=O)O)CC5)nc4)nc3)[nH]c2c1: > 10 µM
8) O=C(O)C[C@H]1CC[C@H](c2ccc(-c3ccc(-c4nc5ccc(Cl)cc5[nH]4)cn3)cc2)CC1: 0.167 µM
9) O=C(O)[C@H]1CC[C@@H](Oc2ccc(-c3ccc(-c4nc5ccc(F)cc5[nH]4)cn3)cn2)CC1: > 10 µM
